The values you see were collected from patent US5646132A.

experimental_details: Audiogenic convulsions test in DBA/2 mice
Format: in vivo, mouse (DBA/2)
experimental_setup: mouse, in vivo, IP vs PO
endpoint: bioavailability index (ID50 IP/ID50 PO)

Ask: bioavailability index (ID50 IP/ID50 PO) for O=c1[nH]c2cc(Cl)c(Cl)cc2cc1P(=O)(O)O [Example 2] ?
Result: ~0.3
